Item-by-item account of IC50
assayedSystem: UniProtKB P41146
assayText: Cell-Based NOP Assay: Formula (I) compounds were tested for antagonism of the nociceptin receptor (NOP) in a cell-based cAMP assay, using the LANCE cAMP Detection Kit, Perkin Elmer (Waltham, Mass.). This assay (LANCE cAMP) is a homogeneous, time-resolved fluorescence resonance energy transfer (TR-FRET) immunoassay designed to measure cAMP produced upon modulation of adenylyl cyclase activity by G protein-coupled receptors (GPCRs).ProtocolCells expressing human opioid NOP (ValiScreen cell line, cat #ES-230-C Perkin Elmer (Waltham, Mass.) were dispensed in simulation buffer (5 mM Hepes, 0.1% BSA, 0.5 mM IBMX in Hanks Buffered Saline Solution) at 2.5 μL cells per well (400 cells/well) into a 1536 white TC-treated assay plate. Compound was then added and plates were incubated for 15 minutes at room temperature. To each well was added 2.5 μL of a solution containing forskolin (3 μM final) and nociceptin peptide (390 pM final) diluted in stimulation buffer, and the plates were incubated for 30 minutes at room temperature. To each well was dispensed 5 μL of LANCE Ultra detection (1:300 dilution of anti-cAMP ULight with a 1:100 dilution of Eu-cAMP tracer diluted in cAMP Detection Buffer) reagent, and the plates were incubated for 1 hr at room temperature. The plate was then read on the ViewLux microplate reader (Perkin Elmer, Waltham, Mass.) using the LANCE 1536 protocol with 60 second exposure times and 50 μs delay. This protocol has an excitation wavelength of 340 nm (DUG11 filter) and emission wavelengths of 615 nm (Eu-Donor) and 665 nm (Alexa 647 cAMP antibody acceptor).Data AnalysisData was analyzed, normalized, and visualized using ACAS (John McNeil & Co.). Efficacy was calculated using activity of the vehicle (DMSO) as 0% efficacy and the activity of the corresponding reference positive control (SCH 221510, Tocris Bioscience (Pittsburgh, Pa.), Catalog number 3240) as 100% efficacy. Activity was calculated as the ratio of donor and acceptor emissions. All curve fits and IC50 determinations were performed using a non-linear regression model. The IC50 value was measured as the concentration at which half-maximal response was calculated.

compound: Cc1cnccc1[C@H]1CC[C@@H](CCNC2CCOCC2)CC1
IC50: 100 to 1000 nM

compound: OC1COCCC1NCC[C@H]1CC[C@@H](c2ccc(F)cc2Cl)CC1 (stereo partly specified)
IC50: < 1 nM

compound: NC(=O)C1(NCC[C@H]2CC[C@H](c3ccc(F)cc3Cl)CC2)CCOCC1
IC50: 10 to 100 nM

compound: CNC(=O)C1(NCC[C@H]2CC[C@@H](c3ccc(F)cc3C(F)(F)F)CC2)CCOCC1
IC50: 1 to 10 nM

compound: CC1(NCCC2CCC(c3ccccc3Cl)CC2)CCOCC1 (stereo unspecified)
IC50: 100 to 1000 nM

compound: Clc1cccnc1C1CCC(CCNC2CCCCC2)CC1 (stereo unspecified)
IC50: 100 to 1000 nM

Q: Would you mind telling me what IC50 value was observed for NC(=O)C1(NCCC2CCC(c3cc(F)ccc3Cl)CC2)CCCC1 (stereo unspecified) ?
Ans: 100 to 1000 nM

Q: Would you mind telling me what IC50 value was observed for `NC(=O)C1(NCC[C@H]2CC[C@H](c3cccc(F)c3Cl)CC2)CCOCC1` ?
Ans: 100 to 1000 nM

* * *

assayedSystem: Nociceptin receptor (Homo sapiens, UniProt P41146)
Sequence (P41146 whole entry): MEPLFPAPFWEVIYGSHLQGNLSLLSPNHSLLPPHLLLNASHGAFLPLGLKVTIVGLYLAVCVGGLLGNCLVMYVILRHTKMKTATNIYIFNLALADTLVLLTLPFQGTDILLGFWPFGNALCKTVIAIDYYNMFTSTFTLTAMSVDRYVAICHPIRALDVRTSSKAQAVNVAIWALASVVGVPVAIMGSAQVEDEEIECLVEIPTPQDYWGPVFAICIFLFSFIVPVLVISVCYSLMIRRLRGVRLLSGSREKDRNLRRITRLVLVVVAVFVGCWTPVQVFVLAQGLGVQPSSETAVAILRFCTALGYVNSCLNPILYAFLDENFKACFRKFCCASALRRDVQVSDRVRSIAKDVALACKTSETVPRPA
assayText: Cell-Based NOP Assay: Formula (I) compounds were tested for antagonism of the nociceptin receptor (NOP) in a cell-based cAMP assay, using the LANCE cAMP Detection Kit, Perkin Elmer (Waltham, Mass.). This assay (LANCE cAMP) is a homogeneous, time-resolved fluorescence resonance energy transfer (TR-FRET) immunoassay designed to measure cAMP produced upon modulation of adenylyl cyclase activity by G protein-coupled receptors (GPCRs).ProtocolCells expressing human opioid NOP (ValiScreen cell line, cat #ES-230-C Perkin Elmer (Waltham, Mass.) were dispensed in simulation buffer (5 mM Hepes, 0.1% BSA, 0.5 mM IBMX in Hanks Buffered Saline Solution) at 2.5 μL cells per well (400 cells/well) into a 1536 white TC-treated assay plate. Compound was then added and plates were incubated for 15 minutes at room temperature. To each well was added 2.5 μL of a solution containing forskolin (3 μM final) and nociceptin peptide (390 pM final) diluted in stimulation buffer, and the plates were incubated for 30 minutes at room temperature. To each well was dispensed 5 μL of LANCE Ultra detection (1:300 dilution of anti-cAMP ULight with a 1:100 dilution of Eu-cAMP tracer diluted in cAMP Detection Buffer) reagent, and the plates were incubated for 1 hr at room temperature. The plate was then read on the ViewLux microplate reader (Perkin Elmer, Waltham, Mass.) using the LANCE 1536 protocol with 60 second exposure times and 50 μs delay. This protocol has an excitation wavelength of 340 nm (DUG11 filter) and emission wavelengths of 615 nm (Eu-Donor) and 665 nm (Alexa 647 cAMP antibody acceptor).Data AnalysisData was analyzed, normalized, and visualized using ACAS (John McNeil & Co.). Efficacy was calculated using activity of the vehicle (DMSO) as 0% efficacy and the activity of the corresponding reference positive control (SCH 221510, Tocris Bioscience (Pittsburgh, Pa.), Catalog number 3240) as 100% efficacy. Activity was calculated as the ratio of donor and acceptor emissions. All curve fits and IC50 determinations were performed using a non-linear regression model. The IC50 value was measured as the concentration at which half-maximal response was calculated.
Item-by-item account of IC50

# example entries with known answers
molecule: Cc1cc(F)ccc1C1CCC(CCNC2(C)CCCC2)CC1 (stereo unspecified)
IC50: 10 to 100 nM

molecule: CC1(NCCC2CCC(c3ncc(F)cc3Cl)CC2)CCOCC1 (stereo unspecified)
IC50: 100 to 1000 nM

molecule: Fc1ccc(C2CCC(CCNC3CCCCC3)CC2)c(F)c1 (stereo unspecified)
IC50: 10 to 100 nM

molecule: Fc1cnc([C@H]2CC[C@H](CCNC3CCOCC3)CC2)c(Cl)c1
IC50: 1 to 10 nM

molecule: NC(=O)N1CCC(NCCC2CCC(c3ncc(F)cc3Cl)CC2)CC1 (stereo unspecified)
IC50: 100 to 1000 nM

molecule: Fc1cc(Cl)ccc1C1CCC(CCNC2CCCCC2)CC1 (stereo unspecified)
IC50: 1 to 10 nM

molecule: Cc1cccnc1C1CCC(CCNC2CCOCC2)CC1 (stereo unspecified)
IC50: 10 to 100 nM

molecule: CC(=O)N1CCC(NCCC2CCC(c3ccc(Cl)cc3F)CC2)CC1 (stereo unspecified)
IC50: 100 to 1000 nM

Q: Would you mind telling me what IC50 value was observed for Cc1cnccc1C1CCC(CCNC2CCCCC2)CC1 (stereo unspecified) ?
Ans: 100 to 1000 nM

Q: Would you mind telling me what IC50 value was observed for `Cc1cc(F)ccc1[C@H]1CC[C@@H](CCNC2(C(N)=O)CCOCC2)CC1` ?
Ans: 1 to 10 nM

Q: Would you mind telling me what IC50 value was observed for `NC(=O)C1(NCC[C@H]2CC[C@@H](c3ncc(F)cc3Cl)CC2)CCOCC1` ?
Ans: 10 to 100 nM

* * *

assayedSystem: Nociceptin receptor (Homo sapiens)
assayText: Cell-Based NOP Assay: Formula (I) compounds were tested for antagonism of the nociceptin receptor (NOP) in a cell-based cAMP assay, using the LANCE cAMP Detection Kit, Perkin Elmer (Waltham, Mass.). This assay (LANCE cAMP) is a homogeneous, time-resolved fluorescence resonance energy transfer (TR-FRET) immunoassay designed to measure cAMP produced upon modulation of adenylyl cyclase activity by G protein-coupled receptors (GPCRs).ProtocolCells expressing human opioid NOP (ValiScreen cell line, cat #ES-230-C Perkin Elmer (Waltham, Mass.) were dispensed in simulation buffer (5 mM Hepes, 0.1% BSA, 0.5 mM IBMX in Hanks Buffered Saline Solution) at 2.5 μL cells per well (400 cells/well) into a 1536 white TC-treated assay plate. Compound was then added and plates were incubated for 15 minutes at room temperature. To each well was added 2.5 μL of a solution containing forskolin (3 μM final) and nociceptin peptide (390 pM final) diluted in stimulation buffer, and the plates were incubated for 30 minutes at room temperature. To each well was dispensed 5 μL of LANCE Ultra detection (1:300 dilution of anti-cAMP ULight with a 1:100 dilution of Eu-cAMP tracer diluted in cAMP Detection Buffer) reagent, and the plates were incubated for 1 hr at room temperature. The plate was then read on the ViewLux microplate reader (Perkin Elmer, Waltham, Mass.) using the LANCE 1536 protocol with 60 second exposure times and 50 μs delay. This protocol has an excitation wavelength of 340 nm (DUG11 filter) and emission wavelengths of 615 nm (Eu-Donor) and 665 nm (Alexa 647 cAMP antibody acceptor).Data AnalysisData was analyzed, normalized, and visualized using ACAS (John McNeil & Co.). Efficacy was calculated using activity of the vehicle (DMSO) as 0% efficacy and the activity of the corresponding reference positive control (SCH 221510, Tocris Bioscience (Pittsburgh, Pa.), Catalog number 3240) as 100% efficacy. Activity was calculated as the ratio of donor and acceptor emissions. All curve fits and IC50 determinations were performed using a non-linear regression model. The IC50 value was measured as the concentration at which half-maximal response was calculated.
measurementType: IC50

# example entries with known answers
compound: NC(=O)C1(NCC[C@H]2CC[C@@H](c3ccc(F)cc3C(F)(F)F)CC2)CCOCC1
assayedSystem: Nociceptin receptor (Homo sapiens)
measurementType: IC50
result: 1 to 10 nM
//
compound: NC(=O)C1(NCC[C@H]2CC[C@H](c3ncc(F)cc3Cl)CC2)CCOCC1
assayedSystem: Nociceptin receptor (Homo sapiens)
measurementType: IC50
result: 10 to 100 nM
//
compound: CNC(=O)C1(NCCC2CCC(c3ncc(F)cc3Cl)CC2)CCCC1 (stereo not given)
assayedSystem: Nociceptin receptor (Homo sapiens)
measurementType: IC50
result: 10 to 100 nM
//
compound: Fc1cnc([C@H]2CC[C@@H](CCNC3CCOCC3)CC2)c(Cl)c1
assayedSystem: Nociceptin receptor (Homo sapiens)
measurementType: IC50
result: < 1 nM
//
compound: O=C1C[C@H](NCC[C@H]2CC[C@@H](c3ncc(F)cc3Cl)CC2)CCN1
assayedSystem: Nociceptin receptor (Homo sapiens)
measurementType: IC50
result: 1 to 10 nM

As a next step, examine the compound that follows.
Q: Form entry - test system: Nociceptin receptor (Homo sapiens); read-out: IC50; compound: `Cc1c(C#N)cccc1[C@H]1CC[C@@H](CCNC2CCOCC2)CC1`
Ans: 100 to 1000 nM
